B1: H2-Kb / F4 (parent complex)
chain 1: QQQVRQSPQSLTVWEGETAILNCSYEDSTFNYFPWYQQFPGEGPALLISIRSVSDKKEDGRFTIFFNKREKKLSLHITDSQPGDSATYFCAAMSNYNVLYFGSGTKLTVEP
chain 2: ETAVFQTPNYHVTQVGNEVSFNCKQTLGHDTMYWYKQDSKKLLKIMFSYNNKQLIVNETVPRRFSPQSSDKAHLNLRIKSVEPEDSAVYLCASSARQNSPLYFAAGTRLTVT
chain 3: not shown
chain 4: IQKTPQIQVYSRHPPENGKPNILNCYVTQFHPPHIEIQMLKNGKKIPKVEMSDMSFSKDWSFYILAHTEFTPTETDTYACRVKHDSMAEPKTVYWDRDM
chain 5: SIINFEKL

Variants of: B1
assay info: % of reporter cells activated (NFAT-GFP), raw; also: test concentration or dose not given here
parameter: ratio to parent

// below: answered variants
> print(dat)
   mutation.label        parameter  value.measured
1     chain 5 F5A  ratio to parent           0.967
2     chain 5 F5H  ratio to parent            1.01
3     chain 5 L8F  ratio to parent           0.564
4     chain 5 K7N  ratio to parent           0.254
5     chain 5 I2S  ratio to parent            1.05

a. chain 5 I2E
b. chain 5 E6V
Prompt: Could you point out whether the larger ratio to parent belongs to a or to b ? Could you answer with the label of the item you picked?
Response: a

I. chain 5 I3E
II. chain 5 I3C
III. chain 5 N4F
Prompt: Exam item: list the entries in increasing order of ratio to parent. Rank the items, then write their labels in that order.
Response: III, I, II
(III: 0.0339, I: 0.0777, II: 0.558)

A. chain 5 I2H
B. chain 5 E6N
Prompt: Lab note: record which item had the higher ratio to parent, A or B . Identify your selection by its label.
Response: A
(A: 0.0964, B: 0.0563)

1. chain 5 N4I
2. chain 5 F5P
Prompt: Would you let me know which has the greater ratio to parent value, 1 or 2 ? I would appreciate it if you answered with the label of your choice.
Response: 2
(2: 0.0353, 1: 0.0205)
